- measured target: biotinylated His-Avi-TEAD (194-411) (UniProt P28347)
- experiment: SSM screen, enrichment after two rounds of sorting
measurement kind: enrichment score

* GSPLEYIERAKECCKKGDIQCCLRYFEESGDPNVMLICLFCP (designed binder) [D02L variant of SEQ ID NO: 1] | -3.53
* GSPDEYIERAKECCKKGDPQCCLRYFEESGDPNVMLICLFCP (designed binder) [I17P variant of SEQ ID NO: 1] | -2.41
* GSPDEWIERAKECCKKGDIQCCLRYFEESGDPNVMLICLFCP (designed binder) [Y04W variant of SEQ ID NO: 1] | -2.47
* GSPREYIERAKECCKKGDIQCCLRYFEESGDPNVMLICLFCP (designed binder) [D02R variant of SEQ ID NO: 1] | -7.12
* GSPDEYIERAKECCKQGDIQCCLRYFEESGDPNVMLICLFCP (designed binder) [K14Q variant of SEQ ID NO: 1] | 0.17
* GSPDERIERAKECCKKGDIQCCLRYFEESGDPNVMLICLFCP (designed binder) [Y04R variant of SEQ ID NO: 1] | -0.94
